Give TGI for every item shown.
Test system: UACC-62 melanoma
Experiment: NCI tumour cell line growth inhibition, 48 h

Can you share its TGI? I mean this compound: O=C(/C=C/c1ccc(Cl)c(Cl)c1)C1CCC(Cl)CC1 (stereo not given)
31.2 µM

Quick one: CC1(C)C(=O)C2(C#N)CCC1C2 (stereo not given)
> 100 µM

Quick one: Cc1cc2c(=O)[nH]nc(N)c2c(N)n1
> 100 µM

Quick one: CO[C@]12C[C@H](CNC(=O)c3cc(Br)c(Br)[nH]3)O[C@H]1NC(=O)N2
> 100 µM

Quick one: O=c1c2ncn(CCCl)c2n(-c2ccccc2)c(=S)n1-c1ccccc1
> 100 µM

Quick one: O=C(N/C(=C/c1ccc(Cl)cc1)c1nc2ccccc2c(=O)n1Nc1ccc([N+](=O)[O-])cc1[N+](=O)[O-])c1ccccc1
> 100 µM

Quick one: CC(C)(C)OC(=O)N/N=C(/N)c1ccccc1
> 100 µM

Quick one: COc1ccc(C2C3=C(COC3=O)N(CCO)c3cc4c(cc32)OCCO4)cc1OC (stereo not given)
> 50 µM

Quick one: OC(c1ccccc1)c1c(-c2ccccc2)oc(-c2ccccc2)c1C(O)c1ccccc1 (stereo not given)
25.6 µM

Quick one: CSc1ccc(C2=NN(C(=O)c3ccc(N)cc3)C(c3ccc(F)cc3)C2)cc1 (stereo not given)
22.5 µM

----------
System: UO-31 renal
Experiment: NCI tumour cell line growth inhibition, 48 h
Endpoint: TGI (µM)
The reply should contain only the number, in µM.

Can you share its TGI? I mean this compound: CCOC(=O)CCc1c(C)[nH]c2c(C)c3c([nH]c4ccc(Cl)cc43)c(C)c2c1=O
40.6

Quick one: Oc1[nH]c2ccccc2c1N=NC(=S)N1CCCC1
11.3

Quick one: Cc1cc(-c2nc3cc(F)ccc3s2)ccc1NC(=O)C(C)N (stereo not given)
7.05

Quick one: CC12OC3CC(O1)C1(C=O)C4CCC5(C)C(c6ccc(=O)oc6)CCC5(O)C4CCC1(C3)O2 (stereo not given)
0.97

Quick one: COc1ccc(-c2cncn2-c2cc(OC)c(OC)c(OC)c2)cc1F
64.8

Quick one: CC(C)NC(=O)O/N=C1\CCC2[C@@H]3CC=C4C[C@@H](OC(=O)NC(C)C)CC[C@]4(C)C3CC[C@]12C (stereo not given in full)
2.3

Quick one: Cc1cc2c(C(C)C)c(O)c(O)c(C=O)c2c(O)c1-c1c(C)cc2c(C(C)C)c(O)c(O)c(C=O)c2c1O (tested in a mixture with another compound)
4.56

Quick one: CCOC(=O)c1c(N2CCOCC2)[nH]c(=O)c(C(c2ccc(Cl)c([N+](=O)[O-])c2)c2c(O)c(C(=O)OCC)c(N3CCOCC3)[nH]c2=O)c1O
95.5

Quick one: O=C(CC1(O)C(=O)Nc2c(Cl)ccc(Cl)c21)c1ccc(C2CC2)cc1 (stereo not given)
19.6

Quick one: CN1CCN(c2ccc3nc4c(nc3c2C(F)(F)F)C(=O)c2ncccc2C4=O)CC1
2.84

Quick one: CC(=O)OCC(=O)C1(O)C(C)CC2C3C=C(C)C4=Cc5c(cnn5-c5ccccc5)CC4(C)C3C(O)CC21C (stereo not given)
8.43

Quick one: CCCCOc1ccc(S(=O)(=O)/N=C(\NN)Nc2ccc(Cl)cc2)cc1
37.5

Quick one: C[C@@H](Oc1cc(-c2cnn(C3CC4(CCCNC4)C3)c2)cnc1N)c1c(Cl)ccc(F)c1Cl (stereo not given in full)
3.9

Quick one: O=C1N[C@@H]2c3c(Br)sc(Br)c3C(=O)[C@@H]2N1
9.93

Quick one: COC(=O)c1ccc(NCc2cc(O)ccc2O)cc1O
5.61

Quick one: CCOC(=O)C(Cc1ccc(OC)cc1)C(=O)OCC
19.7

----------
Give TGI for every item shown.
Test system: NCI/ADR-RES ovarian
Experiment: NCI tumour cell line growth inhibition, 48 h
The reply should contain only the number, in µM.

Record Oc1[nH]c2ccccc2c1N=NC(=S)N1CCCC1 : what is its TGI with NCI/ADR-RES ovarian?
6.03

Quick one: C[n+]1c(-c2ccc(/C=N\NC(=O)c3ccc(C(=O)N/N=C/c4ccc(-c5cn6ccsc6[n+]5C)cc4)cc3)cc2)cn2ccsc21
41.1

Quick one: CC1(C)O[C@@H](CP(c2ccccc2)c2ccccc2)[C@H](CP(c2ccccc2)c2ccccc2)O1
36

Quick one: CC(C)(C)c1cc(C(C)(C)C)c2sc(=S)oc2c1O
24.4

----------
Give GI50 for every item shown.
Test system: UACC-62 melanoma
Experiment: NCI tumour cell line growth inhibition, 48 h

Can you share its GI50? I mean this compound: CSc1ccc(C2=NN(C(=O)c3ccc(N)cc3)C(c3ccc(F)cc3)C2)cc1 (stereo not drawn)
10.1 µM

Quick one: Brc1ccc(Br)nn1
1.88 µM

Quick one: Cc1c(N2C(=O)/C(=C\c3ccc(N(C)C)cc3)N=C2c2ccccc2)c(=O)n(-c2ccccc2)n1C
> 100 µM

Quick one: C/C(=N\Nc1cccc(Cl)n1)c1ccccn1
1.22 µM

Quick one: C=C1CO[C@@H]2C[C@@H]1CC/C(C)=C/CC/C(C)=C/CC[C@@]2(C)O
18.4 µM

Quick one: Cc1ccc(-c2cc(/C=N/O)on2)cc1
38.9 µM

Quick one: CCCCCCC1N=C(N)N=C(N)N1c1ccc(Cl)cc1 (stereo not drawn)
8.55 µM

Quick one: O=[N+]([O-])c1ccc(-c2ccccc2)c([As](=O)(O)O)c1
22.5 µM

----------
Tested on: DMS 114 small cell lung
Experiment: NCI tumour cell line growth inhibition, 48 h
Give TGI for every item shown.
The reply should contain only the number, in µM.

Can you share its TGI? I mean this molecule: CO[C@H](c1ccccc1)[C@H](C)N(C)c1ccc2ccccc2c1C1=NC(C)(C)CO1
33.7

Quick one: Nc1ccc(C(=O)NN2C(=O)C(Cl)C2c2cccc([N+](=O)[O-])c2)cc1 (stereo not given)
36.5

Quick one: O=c1[nH]c2c(O)cccc2c2cc3c(c(O)c12)OCO3
75.8

Quick one: CC(C)NC(=O)O/N=C1\CCC2[C@@H]3CC=C4C[C@@H](OC(=O)NC(C)C)CC[C@]4(C)C3CC[C@]12C (stereo not given in full)
1.98

----------
System: NCI-H23 lung
Experiment: NCI tumour cell line growth inhibition, 48 h
Give TGI for every item shown.

Can you share its TGI? I mean this compound: NC(=O)C(=CN1CC(=O)NC1=S)C(N)=O
> 100 µM

Quick one: COc1ccc(C(=O)c2ccc(-n3c4ccccc4c4ccc5c(c43)C(=O)C=CC5=O)cc2)cc1
5.18 µM

Quick one: CC1(C)S[C@@H]2[C@H](NC(=O)/C=C/c3ccccc3)C(=O)N2[C@H]1C(=O)O
> 100 µM

Quick one: Cc1cc2c(=O)[nH]nc(N)c2c(N)n1
> 100 µM

Quick one: COc1cc(C2C(C#N)=C(N)Oc3cc4c(cc32)OCO4)cc2c1OCO2 (stereo not given)
> 100 µM

Quick one: C1=c2ccccc2=C2C(=C(c3ccccc3)C(c3ccccc3)=NN2c2ccccc2)S1
> 100 µM

Quick one: C/C(CN1C(=O)c2ccccc2C1=O)=N\NS(=O)(=O)c1ccc(F)cc1
> 100 µM

Quick one: COc1ccc(NC(=O)O[C@H]2[C@H](O[C@H]3[C@@H](O)COC(O[C@H]4C[C@H]5[C@@H]6CC=C7C[C@@H](O)CC[C@]7(C)[C@H]6CC[C@]5(C)[C@H]4[C@H](C)C(=O)CCC(C)C)[C@@H]3OC(C)=O)OC[C@@H](O)[C@@H]2O)cc1 (stereo not given in full)
5.03 µM

Quick one: O=C(Nc1ccc(F)cc1)c1cc2ccc(O)cc2oc1=Nc1ccccc1F
13.6 µM

Quick one: COc1ccc(-n2sc(=O)n(Cc3ccc(COC(=O)C(C)c4ccc(CC(C)C)cc4)cc3)c2=O)cc1 (stereo not given)
14.1 µM

Quick one: CNC(=O)OCCN1c2ccccc2Sc2ccccc21
> 100 µM

Quick one: OC1C2C=CCC1CCC2 (stereo not given)
> 100 µM

Quick one: COC(=O)c1cc(C)n(NC(=O)OC(C)(C)C)c1C
> 100 µM

Quick one: FC(F)(F)C1=NC(=NNc2nnc(-c3ccccc3)c(-c3ccccc3)n2)N=C(C(F)(F)F)C1
> 100 µM

Quick one: CC1OC(OC2C(O[C@@H]3C[C@@H]4CC[C@@H]5[C@H](CC[C@]6(C)[C@@H]7[C@H](C[C@@H]56)O[C@]5(CC[C@@H](C)CO5)[C@H]7C)[C@@]4(C)C[C@H]3O)OC(CO)C(OC3OC(CO)C(O)C(O)C3O)C2O)C(O)C(O)C1O (stereo not given in full)
4.12 µM

Quick one: CCCCCn1cnc2c1S(=O)(=O)N(C)C(NC(=O)c1ccccc1)=N2
> 100 µM

Quick one: Cc1cc2nc3c4ccccc4n(CCN(C)C)c3nc2cc1C
5.7 µM

Quick one: Oc1[nH]c2ccc(Cl)cc2c1/C=c1/ccc2c(c1)N=C(c1cc(F)cc(F)c1)N=2
> 100 µM

Quick one: c1ccc2c3nnc(c2c1)SCCSCCCSCCS3
> 100 µM

Quick one: CC(C)(C)OC(=O)N/N=C(/N)c1ccccc1
> 100 µM
